- Tested on: MIA PaCa-2
- protocol_text: Antiproliferative activity against human MIAPaCa2 cells after 72 hrs
- Assay type: functional, cell-based
- condition_context: MIA PaCa-2, 72 h
experimental_readout: IC50 (µM)

- compound_string: "C=C1C[C@H](O)[C@@H]2[C@H](OC(=O)[C@H]2C)[C@H]2CC(=O)C[C@@H]12"
  subject_of_test: "MIA PaCa-2"
  experimental_readout: "IC50"
  experimental_result: 15.9
- compound_string: "C=C(C)C(=O)O[C@H]1CC(=C)[C@@H]2C[C@H](O)C(=C)[C@@H]2[C@H]2OC(=O)C(=C)[C@@H]21"
  subject_of_test: "MIA PaCa-2"
  experimental_readout: "IC50"
  experimental_result: 3.6
- compound_string: "O=c1[nH]cc(F)c(=O)[nH]1"
  subject_of_test: "MIA PaCa-2"
  experimental_readout: "IC50"
  experimental_result: 7.4
